These entries and their values trace back to the supplement of paper PMC8149375.

System: A498
Test: minimum viability across doses, drug + dasatinib, relative to DMSO (fraction); higher = less growth inhibition
Conditions: treatment: drug + dasatinib (fixed dose, not stated); 5 days
Measured minimum viability across doses accompanies every entry in the list below.
The answer should be written as a number, with no unit following it.

Here are 7 molecules together with their reported answers.
INSERT INTO results (molecule, measurement_type, value_measured) VALUES
  ('CCc1cccc(CC)c1NC(=O)N1Cc2[nH]nc(NC(=O)c3ccc(N4CCN(C)CC4)cc3)c2C1 + Cc1nc(Nc2ncc(C(=O)Nc3c(C)cccc3Cl)s2)cc(N2CCN(CCO)CC2)n1', 'minimum viability across doses', 0.406),
  ('Cc1cc2c(F)c(Oc3ncnn4cc(OC[C@@H](C)O)c(C)c34)ccc2[nH]1 + Cc1nc(Nc2ncc(C(=O)Nc3c(C)cccc3Cl)s2)cc(N2CCN(CCO)CC2)n1', 'minimum viability across doses', 0.789),
  ('CCS(=O)(=O)N1CC(CC#N)(n2cc(-c3ncnc4[nH]ccc34)cn2)C1 + Cc1nc(Nc2ncc(C(=O)Nc3c(C)cccc3Cl)s2)cc(N2CCN(CCO)CC2)n1', 'minimum viability across doses', 1.07),
  ('Nc1cccc2c1CN(C1CCC(=O)NC1=O)C2=O (stereo not drawn) [Lenalidomide (Revlimid)] + Cc1nc(Nc2ncc(C(=O)Nc3c(C)cccc3Cl)s2)cc(N2CCN(CCO)CC2)n1', 'minimum viability across doses', 0.989),
  ('NC(=O)c1ccc(N(C(N)=O)c2c(F)cccc2F)nc1-c1ccc(F)cc1F [VX-702] + Cc1nc(Nc2ncc(C(=O)Nc3c(C)cccc3Cl)s2)cc(N2CCN(CCO)CC2)n1', 'minimum viability across doses', 0.887),
  ('Br.Cc1ccc(C(=O)Cn2c3c(sc2=N)CCCC3)cc1 [Pifithrin-α] + Cc1nc(Nc2ncc(C(=O)Nc3c(C)cccc3Cl)s2)cc(N2CCN(CCO)CC2)n1', 'minimum viability across doses', 0.901),
  ('Nc1cc(C(F)(F)F)c(-c2cc(N3CCOCC3)nc(N3CCOCC3)n2)cn1 [BKM120 (NVP-BKM120)] + Cc1nc(Nc2ncc(C(=O)Nc3c(C)cccc3Cl)s2)cc(N2CCN(CCO)CC2)n1', 'minimum viability across doses', 0.101);

Switching to the query record.
Input CN(C)c1ccc(-c2nc3c(N4CCN(CC(=O)Nc5nccs5)CC4)c(Cl)cnc3[nH]2)cc1 + Cc1nc(Nc2ncc(C(=O)Nc3c(C)cccc3Cl)s2)cc(N2CCN(CCO)CC2)n1 , output reported minimum viability across doses. 0.281

* * *

Test system: UO-31
Experiment: GI50 of drug in presence of dasatinib; higher = less potent
Settings: treatment: drug + dasatinib (fixed dose, not stated); 5 days
Measured GI50 of drug accompanies every entry in the list below.

INSERT INTO measurements (compound, system, value_measured) VALUES
  ('CS(=O)c1ccc(-c2nc(-c3ccc(F)cc3)c(-c3ccncc3)[nH]2)cc1 (stereo not drawn) + Cc1nc(Nc2ncc(C(=O)Nc3c(C)cccc3Cl)s2)cc(N2CCN(CCO)CC2)n1', 'UO-31', '> 10 µM'),
  ('CCCNC(=O)Nc1ccc(Oc2ncnc3cc(OC)c(OC)cc23)cc1Cl [KRN 633] + Cc1nc(Nc2ncc(C(=O)Nc3c(C)cccc3Cl)s2)cc(N2CCN(CCO)CC2)n1', 'UO-31', '> 10 µM');

Switching to the query record.
Input COc1ccc(COc2cc3oc(=O)c4cc(C(C)O)ccc4c3cc2OC)cc1 (stereo not drawn) [Palomid 529] + Cc1nc(Nc2ncc(C(=O)Nc3c(C)cccc3Cl)s2)cc(N2CCN(CCO)CC2)n1 , output reported GI50 of drug. > 10 µM
